testedSystem: LTA4H (Homo sapiens, UniProt P09960)
measurementProtocol: LTA4H aminopeptidase assay with surrogate substrate Arg-AMC
Assay type: biochemical
Design: Full-length LTA4H containing a N-terminal (His)6-tag; (His)6-tag (N, cleaved yes); (Gly3-Ser)3 spacer (N, cleaved yes); made in house; host or cells: E. coli BL21 (DE3) star
conditionInfo: Table 2; read-out: IC50 Arg-AMC
pIC50: −log10 of the molar value.
pIC50 by entry:

{"columns": ["smilesRepresentation", "pIC50"],
 "data": [
  ["O=Cc1ccc(Oc2nc3ncccc3s2)cn1", 7.09],
  ["OCc1ccc(Oc2nc3ccccc3s2)cc1", 6.65],
  ["O=Cc1ncc(Oc2nc3ccccc3s2)cn1", 5.59]
]}

###

Some compounds, each annotated with its measured IC50.
testedSystem: LTA4H (Homo sapiens, UniProt P09960)
measurementProtocol: LTA4H aminopeptidase assay with surrogate substrate Arg-AMC
Assay type: biochemical
Set-up: Full-length LTA4H containing a N-terminal (His)6-tag; (His)6-tag (N, cleaved yes); (Gly3-Ser)3 spacer (N, cleaved yes); made in house; host or cells: E. coli BL21 (DE3) star
conditionInfo: Table 1; average of minimum two biological replicates; read-out: IC50 Arg-AMC

{"columns": ["compound", "IC50 / nM"],
 "data": [
  ["Oc1cc(-c2ccc(Oc3ccccc3)cc2)n[nH]1", 1300],
  ["Nc1nc(-c2ccc(Cc3ccccc3)cc2)cs1 [ARM-1, 4-(4-benzylphenyl) thiazol-2-amine, reference compound]", 970],
  ["c1ccc(Cc2ccc(-c3c[nH]cn3)cc2)cc1", 270],
  ["COc1ccc(Cc2ccccc2)cc1 [4-MDM, 4-Methoxydiphenylmethane, reference compound]", 10100],
  ["c1ccc(Oc2ccc(-c3cc[nH]c3)cc2)cc1", 480],
  ["Cn1cnc(-c2ccc(Oc3ccccc3)cc2)c1", 2870]
]}

###

testedSystem: UniProt P09960
measurementProtocol: PGP peptidolysis assay by LC-MS/MS
Type: biochemical
Set-up: Full-length LTA4H containing a N-terminal (His)6-tag; (His)6-tag (N, cleaved yes); (Gly3-Ser)3 spacer (N, cleaved yes); made in house; host or cells: E. coli BL21 (DE3) star
Method: The aminopeptidase activity of LTA4H was assessed with H-PGP-OH (Bachem, Switzerland) as substrate. Assays were performed at RT in black 384-well low volume plates (Greiner) and analyzed by LC-MS/MS. All compounds were tested as 8 point dose response curves in triplicates included on every plate. […] For peptide quantification, an HPLC instrument from Agilent Series 1290 (binary high pressure gradient system) with detectors UV, fluorescence and mass (single Quad) detectors was used. […]
pIC50: −log10 of the molar value.
endpointLabel: pIC50

{"columns": ["smilesRepresentation", "measValue"],
 "data": [
  ["c1ccc(Oc2ccc(-c3c[nH]cn3)cc2)cc1", 7.35]
]}

###

pIC50 values by entry
testedSystem: LTA4H (Homo sapiens, UniProt P09960)
Sequence (P09960 1-611): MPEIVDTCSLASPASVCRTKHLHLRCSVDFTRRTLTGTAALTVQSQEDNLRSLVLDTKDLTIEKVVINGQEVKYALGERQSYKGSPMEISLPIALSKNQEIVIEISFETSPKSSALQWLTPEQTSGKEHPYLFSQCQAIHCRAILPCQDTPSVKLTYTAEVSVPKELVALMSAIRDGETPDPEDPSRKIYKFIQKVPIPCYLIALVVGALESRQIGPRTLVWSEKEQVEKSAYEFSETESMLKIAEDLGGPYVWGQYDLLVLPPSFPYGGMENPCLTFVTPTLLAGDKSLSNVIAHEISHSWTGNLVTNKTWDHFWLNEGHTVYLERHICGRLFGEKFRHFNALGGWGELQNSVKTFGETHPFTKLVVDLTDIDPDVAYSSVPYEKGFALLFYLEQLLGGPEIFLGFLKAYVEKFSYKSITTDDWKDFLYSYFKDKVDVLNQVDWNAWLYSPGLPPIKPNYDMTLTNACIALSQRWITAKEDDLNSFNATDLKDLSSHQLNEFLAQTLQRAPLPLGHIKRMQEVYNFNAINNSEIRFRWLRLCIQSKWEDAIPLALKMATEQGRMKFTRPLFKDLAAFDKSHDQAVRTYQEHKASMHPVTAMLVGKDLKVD
measurementProtocol: LTA4H aminopeptidase assay with surrogate substrate Pro-AMC
Format: biochemical
Parameters: Full-length LTA4H containing a N-terminal (His)6-tag; (His)6-tag (N, cleaved yes); (Gly3-Ser)3 spacer (N, cleaved yes); made in house; host or cells: E. coli BL21 (DE3) star
conditionInfo: Table 2; read-out: IC50 Pro-AMC
pIC50: −log10 of the molar value.
endpointLabel: pIC50

{"columns": ["smilesRepresentation", "measValue"],
 "data": [
  ["O=Cc1ncc(Oc2nc3ccccc3s2)cn1", 4.80],
  ["O=Cc1ccc(Oc2nc3ncccc3s2)cn1", 6.25],
  ["OCc1ccc(Oc2nc3ccccc3s2)cc1", 6.82]
]}
